This collection of values is drawn from PubChem BioAssay (NCI).

Tested on: MALME-3M melanoma
measurementNotes: NCI tumour cell line growth inhibition, 48 h
testReadout: TGI

• N#CC(=C1C=CC(=NO)C=C1)c1ccccc1 = 19.8 µM
• Nc1c2c(nc3cc(F)c(F)cc13)CCC2 = > 100 µM
• CCc1cc2c(oc3cc4ccccc4cc32)c(=O)[nH]1 = > 10 µM
• CCCCC1=NNC(=O)C1 = > 100 µM
• Cc1ccc(C)c(C2=C(c3cn(C)c4ccccc34)C(=O)NC2=O)c1 = > 25 µM
• CC(CCC=O)CCOCc1ccccc1 (configuration not stated) = > 100 µM
• Oc1c(C2=NNC(c3ccc(Cl)cc3Cl)C2)ccc2ccccc12 (configuration not stated) = > 100 µM

----------
Test system: HOP-62 NSCLC
measurementNotes: NCI tumour cell line growth inhibition, 48 h
Catalogue of molecules with associated GI50
testReadout: GI50

• CCCCCCCCCCCCCC1=NC(C)(C)CN1C(C)C = 1730 nM
• O=C(Nc1nc2ccc(C(F)(F)F)cc2s1)c1cc(Cl)ccc1O = 2030 nM
• CC(C)=CCNc1ncnc2c1ncn2C1OC(CO)C(O)C1O (configuration not stated) = 1300 nM
• COc1ccc(CN2C(=O)/C(=C\C(=O)c3ccc(OCCN4CCCCC4)cc3)c3ccccc32)cc1 = 20200 nM
• COc1cc2nc(-c3ccc(Cl)cc3)cc(OCCCN3CCCCC3)c2cc1OC = 2370 nM
• CCN1CCN(C(c2ccc(C(F)(F)F)cc2)c2ccc3cccnc3c2O)CC1 (configuration not stated) = 1320 nM
• CCOC(=O)CCCn1c(SC)nc2[nH]cc(-c3ccccc3)c2c1=O = 11000 nM

----------
Test system: HCT-116 colon
measurementNotes: NCI tumour cell line growth inhibition, 48 h
Catalogue of molecules with associated TGI
testReadout: TGI

- O=C(NCC(=O)N1CCCC1C(=O)OC(=O)C1CCCN1C(=O)CNC(=O)OCc1ccccc1)OCc1ccccc1 (centres undefined): > 100 µM
- CC(CCC=O)CCOCc1ccccc1 (centres undefined): > 100 µM
- CCOC(=O)c1c(-c2ccc(OC)cc2)c(C#N)c(=S)n(C2OC(COC(C)=O)C(OC(C)=O)C(OC(C)=O)C2OC(C)=O)c1-c1ccccc1 (centres undefined): > 100 µM
- CC(=O)Nc1ccc(N2C(=O)/C(=C\c3cccc(Oc4ccccc4)c3)S(=O)(=O)C2c2ccccc2)cc1 (centres undefined): > 100 µM
- CN(C(=O)C1=CCC2(CC1)OCCO2)c1ccccc1OS(=O)(=O)C(F)(F)F: > 100 µM
- Cc1c([N+](=O)[O-])ccc2c(NCCCN(C)C)ccnc12: 35.3 µM
- Cc1cc(C)nc(NC(=O)c2ccc(Br)s2)c1: > 100 µM
- Oc1cn(-c2ccc(Cl)cc2)nc1-c1nnc(-c2ccccc2)o1: 1.14 µM
- CCOC(=O)C1=C(C)N(Cc2ccc(Cl)cc2Cl)C2(O)C=CC(=O)C3C(=O)N(c4ccccc4)C(=O)C132 (centres undefined): > 100 µM

----------
Catalogue of molecules with associated GI50
System: MOLT-4 leukemia
measurementNotes: NCI tumour cell line growth inhibition, 48 h
testReadout: GI50

• C=C1CC[C@@H]2[C@](C)(COC(C)=O)[C@H](OC(C)=O)CC[C@@]2(C)[C@@H]1CC(Sc1ccccc1)C1=CCOC1=O (some centres undefined) = 1.48 µM
• [Cl][Hg][c]1cc(Br)cc(Br)c1 = 1.77 µM
• CCN(CC)CCOc1ccc(-c2nc3cc(Cl)ccc3s2)cc1 = 2.24 µM
• CC(C)=CCNc1ncnc2c1ncn2C1OC(CO)C(O)C1O (centres undefined) = 0.457 µM

----------
Catalogue of compounds with associated TGI
Test system: SW-620 colon
measurementNotes: NCI tumour cell line growth inhibition, 48 h
testReadout: TGI

* Cc1nc2c(-c3cnc(N)nc3)nc(N3CCOCC3)nc2n1C(C)C | > 100 µM
* CC(C)(Br)C(Br)CCC1(C2CO2)CO1 (stereo not drawn) | > 5 µM
* CC(=O)Nc1ccc(N2C(=O)/C(=C\c3cccc(Oc4ccccc4)c3)S(=O)(=O)C2c2ccccc2)cc1 (stereo not drawn) | > 100 µM
* O=C1NC(NNc2ccccc2)=N/C1=C\c1ccccc1O | > 100 µM
* O=C1C(Cl)N(c2ccc(Cl)cc2)C1c1c[nH]c2ccccc12 (stereo not drawn) | 68.8 µM
* COc1cnc2c(c1)C(=O)c1c-2n(CCCNC(C)C)c(=O)c2cc(Cl)ccc12 | 1.71 µM
* COc1ccc(/C=C(/C(=O)N2CCN(c3ccccc3)CC2)c2cc(OC)c(OC)c(OC)c2)cc1O | > 100 µM
* Cc1ccc(Cc2c(=O)[nH]nc3ccccc23)cc1 | > 100 µM
* COc1cc(C(Cc2ccccc2)NC(C)=O)oc(=O)c1 (stereo not drawn) | > 100 µM
* Cn1c2ccccc2c2c3c(c4c5cc(Br)ccc5n(C)c4c21)C(=O)N(O)C3=O | > 100 µM
* O=C1/C(=C/c2ccc(Br)cc2)COc2ccc(O)c(O)c21 | 2.22 µM
* NC(=Nc1c([N+](=O)[O-])cnc2ccccc12)N1CCOCC1 | > 100 µM
* O=C1NC(=O)C(c2c[nH]c3ccccc23)=C1c1cnc[nH]1 | > 100 µM
* CN(C)N=Nc1ccc(NC=O)cc1 | > 100 µM
* O=c1[nH]c2c(nc1NC13CC4CC(CC(C4)C1)C3)c(=O)oc1ccccc12 | > 100 µM
* Clc1nc2ccccc2nc1CI | 6.87 µM
* C=C1CC[C@@H]2[C@](C)(COC(C)=O)[C@H](OC(C)=O)CC[C@@]2(C)[C@@H]1CC(Sc1ccccc1)C1=CCOC1=O (stereo partly drawn) | 3.64 µM
* Cn1c2c(c3ccccc31)C1CCCCCCC1C1C(=O)OC(=O)C21 (stereo not drawn) | > 100 µM
* CCCCCCCCCCCCOC1C(C(COC2OC(C3COC(C)(C)O3)C3OC(C)(C)OC23)NC(=O)Nc2ccc(C(=O)O)cc2)OC2OC(C)(C)OC21 (stereo not drawn) | 11 µM
* NNC(=S)N/N=C(\CC1OC(=O)c2ccccc21)c1ccccc1O (stereo not drawn) | > 100 µM
* CN(C)/C=N/c1nc2c(ncn2C2OC(CO)C(O)C2O)c(=O)[nH]1 (stereo not drawn) | > 100 µM
* C=CCCCCC/C=C\[C@H](O)C#CC#C/C=C/CO | 78.5 µM
* CCN1CCN(C(c2ccc(C(F)(F)F)cc2)c2ccc3cccnc3c2O)CC1 (stereo not drawn) | 19.9 µM
* CC(C)N(C(=O)C12C3C4C5(C#N)C3C1(C#N)C5C42I)C(C)C (stereo not drawn) | > 66 µM
* COc1ccc(C2C(Cl)C(=O)N2n2cnc3ccccc3c2=O)cc1 (stereo not drawn) | > 100 µM
* CCCCCCNC(=O)c1cc(NCc2cc(O)ccc2O)ccc1O | 33.1 µM
* Nc1c2c(nc3cc(F)c(F)cc13)CCC2 | > 100 µM
* CCCC[C@@H]1CCN2C[C@@H](O)[C@@H](O)[C@@H]2[C@H]1O | > 100 µM
* CC1=C(C(=O)Nc2ccccc2)C(c2ccccc2)C(C(=O)Nc2ccccc2)=C(C)N1 | > 100 µM
* CNc1ccc(C(=O)CC(O)CCC(C)C2OC(=O)CC(O)CC(=O)CC(O)CC(O)CC(O)CC(O)CC3(O)CC(O)C(C(=O)NCCN(C)C)C(CC(OC4OC(C)C(O)C(NC(=O)CN5CCN(C)CC5)C4O)/C=C/C=C/C=C/C=C\C=C/C=C/C=C/C2C)O3)cc1 (stereo not drawn) | > 100 µM
* COC1(OC)CC2C(=O)N(Cc3ccccc3)C1C(S(=O)(=O)c1ccccc1)C2S(=O)(=O)c1ccccc1 (stereo not drawn) | 13.6 µM
* CC1=NNC(=O)C2CCC(=O)N12 (stereo not drawn) | > 100 µM
* CCCCc1c(N(C)C)c(OC(C)=O)c(-c2cn(C)c3ccccc23)oc1=O | > 100 µM
* COc1ccc(C2COc3cc(OC(C)=O)c(OC(C)=O)cc3C2)cc1 (stereo not drawn) | 46.5 µM
* COc1ccc(N2C(=O)CC(C3CC(C(C)(C)C)CCC3=O)C2=O)cc1 (stereo not drawn) | > 100 µM
* CCc1cc2c(oc3cc4ccccc4cc32)c(=O)[nH]1 | > 10 µM
* CN(Cc1cnc2nc(N)nc(N)c2n1)c1ccc(C(=O)NC(CCC(=O)NCCC(P(=O)(O)O)P(=O)(O)O)C(=O)O)cc1 (stereo not drawn) | > 100 µM
* C=C(CNCc1ccccc1)c1ccc(C(=O)Nc2ccccc2N)cc1 | > 100 µM
* O=C(CCn1[nH]c(=O)c(Cl)c(Cl)c1=O)NO | > 100 µM
* N#CC(=C1C=CC(=NO)C=C1)c1ccccc1 | 2.36 µM
* O=C(NC(Cc1c[nH]c2ccccc12)C(=O)Nc1ccc(Br)cc1)OCc1ccccc1 (stereo not drawn) | 54.6 µM
* COc1cc2nc(-c3ccc(Cl)cc3)cc(OCCCN3CCCCC3)c2cc1OC | > 100 µM
* CCC(C)n1ncn(-c2ccc(N3CCN(c4ccc(OCC5COC(Cn6cncn6)(c6ccc(Cl)cc6Cl)O5)cc4)CC3)cc2)c1=O (stereo not drawn) | > 100 µM
